Give melting point for every item shown.

Please give the measured melting point for this compound: CC(C)[C@H](S)C(=O)NC1(C(=O)NC(Cc2ccc(-c3csc(CO)c3)cc2)C(=O)O)CCCC1 (stereo in doubt)
155 to 158 °C

Give the measured melting point of CC(C)[C@H](S)C(=O)NC1(C(=O)NC(Cc2ccc(-c3ccncc3)cc2)C(=O)O)CCCC1 (stereo partly shown) .
236 to 238 °C

Which measured melting point value corresponds to CC(C)C[C@H](S)C(=O)NC1(C(=O)N[C@@H](Cc2ccc(-c3cccc(F)c3)cc2)C(=O)O)CCCC1 (stereo in doubt) ?
125 to 128 °C

Sample CC(=O)N1CCCC(c2ccc(C[C@H](NC(=O)C3(NC(=O)[C@@H](S)C(C)C)CCCC3)C(=O)O)cc2)C1 (stereo in doubt) — what was its melting point?
190 to 192 °C

Values were extracted from patent US6423727B1.
